# test method notes: Toxicity liver stage against HepG2, at 10uM
# Format: cell-based
# Set-up: test concentration 10 uM, cell line HepG2-A16-CD81EGFP
# measurement conditions: human, HepG2-A16-CD81EGFP cells; read-out: INHIBITION
For each of the compounds below, state its cytotoxicity at 10 µM.
Your answer is read as %, so omit the unit and give the number.

Quick note, cytotoxicity at 10 µM for Cc1nc(O)cc(CCNC(=O)CN2CCCCCC2)n1 landed at 0.458

Quick note, cytotoxicity at 10 µM for O=C(NC1CC1)[C@@H]1CCO[C@@H]2CCN(C3CCCC3)C[C@H]21 landed at 13.3

compound CC(C)c1ccc(-n2cc(O)c(C(=O)O)n2)cc1 , cytotoxicity at 10 µM observed: -42.4

What the record says about Cc1ccc(C(=O)NCCNS(C)(=O)=O)c(=O)[nH]1 : cytotoxicity at 10 µM is -5.3

According to the records, this compound Cc1ncccc1NC(=O)C1=NOC2(CCN(Cc3nccs3)C2)C1 (stereo unspecified) displays cytotoxicity at 10 µM of 2.11

Short answer for COC(=O)CCC(=O)N1CCC2(CN(Cc3ccc(Cl)cc3)C2)C1 : cytotoxicity at 10 µM was 5.7
